- Test system: HT29 RAMS11 overexpressing cells
- procedureDetails: High-throughput viability assay (resazurin), 119 FDA-approved anticancer drugs, RAMS11 overexpressing cells (Clone1, Clone2)
- measurementContext: OE1 (RAMS11 overexpression clone 1), 0.1 uM drug, 72 h, vs empty vector control
So basically: Viability Fold Change at 1 or higher? That is yes (1). Lower than 1? That is no (0).

INSERT INTO measurements (compound, labelclass) VALUES
  ('O=C(O)CCCc1ccc(N(CCCl)CCCl)cc1', 'no (0)'),
  ('CC(=O)O[C@H]1C(=O)[C@@]2(C)[C@H]([C@H](OC(=O)c3ccccc3)[C@]3(O)C[C@H](OC(=O)[C@H](O)[C@@H](NC(=O)c4ccccc4)c4ccccc4)C(C)=C1C3(C)C)[C@]1(OC(C)=O)CO[C@@H]1C[C@@H]2O', 'yes (1)'),
  ('CN(N=O)C(=O)N[C@@H](C=O)[C@@H](O)[C@H](O)[C@H](O)CO', 'yes (1)'),
  ('C[C@]12CC[C@@H]3c4ccc(O)cc4C[C@@H](CCCCCCCCC[S+]([O-])CCCC(F)(F)C(F)(F)F)[C@H]3[C@@H]1CC[C@@H]2O (some centres unmarked)', 'yes (1)'),
  ('COc1cc2ncnc(Nc3ccc(F)c(Cl)c3)c2cc1OCCCN1CCOCC1', 'no (0)');

* * *

- Tested on: HT29 RAMS11 overexpressing cells
- procedureDetails: High-throughput viability assay (resazurin), 119 FDA-approved anticancer drugs, RAMS11 overexpressing cells (Clone1, Clone2)
- measurementContext: OE1 (RAMS11 overexpression clone 1), 1 uM drug, 72 h, vs empty vector control
measureName: Viability Fold Change

INSERT INTO results (molecule, observedvalue) VALUES
  ('O=C(c1ccc(OCCN2CCCCC2)cc1)c1c(-c2ccc(O)cc2)sc2cc(O)ccc12 [Raloxifene]', 0.9244),
  ('CCCCC(=O)OCC(=O)[C@]1(O)Cc2c(O)c3c(c(O)c2[C@@H](O[C@H]2C[C@H](NC(=O)C(F)(F)F)[C@H](O)[C@H](C)O2)C1)C(=O)c1c(OC)cccc1C3=O [Valrubicin]', 1.163),
  ('Clc1ccc(C(c2ccccc2Cl)C(Cl)Cl)cc1 (centres unmarked) [Mitotane]', 0.9667),
  ('O=C(O)CCCc1ccc(N(CCCl)CCCl)cc1 [Chlorambucil]', 1.164),
  ('CNC(=O)c1cc(Oc2ccc(NC(=O)Nc3ccc(Cl)c(C(F)(F)F)c3)c(F)c2)ccn1 [Regorafenib]', 0.9476),
  ('COc1nc(N)nc2c1ncn2[C@@H]1O[C@H](CO)[C@@H](O)[C@@H]1O [Nelarabine]', 1.033),
  ('O=c1[nH]cc(F)c(=O)[nH]1 [5-FU, fluorouracil, reference compound]', 0.9553),
  ('Nc1nc(Cl)nc2c1ncn2[C@@H]1O[C@H](CO)[C@@H](O)[C@@H]1F [Clofarabine]', 1.361);

* * *

- Tested on: HT29 RAMS11 overexpressing cells
- procedureDetails: High-throughput viability assay (resazurin), 119 FDA-approved anticancer drugs, RAMS11 overexpressing cells (Clone1, Clone2)
- measurementContext: OE1 (RAMS11 overexpression clone 1), 0.1 uM drug, 72 h, vs empty vector control
Structures can show the parent of a compound that is named as a salt.
# note: exactly 1 is not below, so it is F; use T for Viability Fold Change strictly under it

INSERT INTO results (compound, labelclass) VALUES
  ('C[C@@H](CN1CC(=O)NC(=O)C1)N1CC(=O)NC(=O)C1', 'T'),
  ('Cn1nnc2c(C(N)=O)ncn2c1=O [Temozolomide]', 'T'),
  ('CC[C@@]1(O)C(=O)OCc2c1cc1n(c2=O)Cc2cc3c(CN(C)C)c(O)ccc3nc2-1 [Topotecan HCL]', 'F'),
  ('Cc1cn(-c2cc(NC(=O)c3ccc(C)c(Nc4nccc(-c5cccnc5)n4)c3)cc(C(F)(F)F)c2)cn1', 'T'),
  ('CS(=O)(=O)c1ccc(C(=O)Nc2ccc(Cl)c(-c3ccccn3)c2)c(Cl)c1', 'T'),
  ('O=C1CCC(N2C(=O)c3ccccc3C2=O)C(=O)N1 (stereo not drawn) [Thalidomide]', 'T'),
  ('CO[C@H]1C[C@@H]2CC[C@@H](C)[C@@](O)(O2)C(=O)C(=O)N2CCCC[C@H]2C(=O)O[C@H]([C@H](C)C[C@@H]2CC[C@@H](OC(=O)C(C)(CO)CO)[C@H](OC)C2)CC(=O)[C@H](C)/C=C(\C)[C@@H](O)[C@@H](OC)C(=O)[C@H](C)C[C@H](C)/C=C/C=C/C=C/1C', 'T'),
  ('NCC(=O)CCC(=O)O', 'T'),
  ('CC[C@]1(O)C[C@@H]2CN(CCc3c([nH]c4ccccc34)[C@@](C(=O)OC)(c3cc4c(cc3OC)N(C)[C@H]3[C@@](O)(C(=O)OC)[C@H](OC(C)=O)[C@]5(CC)C=CCN6CC[C@]43[C@@H]65)C2)C1 [Vinblastine sulfate]', 'F'),
  ('COc1c2occc2cc2ccc(=O)oc12', 'T'),
  ('Nc1nc2nc[nH]c2c(=S)[nH]1', 'T'),
  ('C/C(=C\c1csc(C)n1)[C@@H]1C[C@@H]2O[C@]2(C)CCC[C@H](C)[C@H](O)[C@@H](C)C(=O)C(C)(C)[C@@H](O)CC(=O)N1 [Ixabepilone]', 'F'),
  ('CO[C@H]1C[C@@H]2CC[C@@H](C)[C@@](O)(O2)C(=O)C(=O)N2CCCC[C@H]2C(=O)O[C@H]([C@H](C)C[C@@H]2CC[C@@H](O)[C@H](OC)C2)CC(=O)[C@H](C)/C=C(\C)[C@@H](O)[C@@H](OC)C(=O)[C@H](C)C[C@H](C)/C=C/C=C/C=C/1C', 'T');
